The following compounds are listed with their measured TGI values.
Test system: HS 578T breast
Experiment: NCI tumour cell line growth inhibition, 48 h
Respond with the bare value in µM.

| structure-smiles-string | display-unit | TGI |
| --- | --- | --- |
| COC(=O)Nc1nc2ccc(NS(=O)(=O)c3ccc(Cl)cc3)cc2[nH]1 | µM | 8.86 |

# context switch: different compound, same TGI
Qu. Quick one: TGI of "NC(N)=N/N=C(\c1ccc(F)cc1)c1ccc(C(F)(F)F)cc1" ?
Ans. 1.85

---

System: HCC-2998 colon
Test: NCI tumour cell line growth inhibition, 48 h
The following compounds are listed with their measured TGI values.

// below: answered compounds
| compound | TGI |
| --- | --- |
| N=C(N)c1ccc(-c2ccc(-c3ccccc3)s2)s1 | 2.36 µM |
| Cc1ccccc1Cn1nc2ccccc2cc1=O | > 100 µM |
| COC(=O)C(=O)C(CC(=O)Nc1c(C)cccc1C)C(=O)OC (centres undefined) | > 100 µM |

Qu. Quick one: TGI of CCCCCCCC/C=C/CCCCCCCC(=O)N(O)C1CC(n2cc(C)c(=O)[nH]c2=O)OC1CO (centres undefined) ?
Ans. 22.4 µM

Qu. Please do the same for "CC(=O)OCc1cc(=O)n2c([nH]c3ccccc32)c1C#N" as well.
Ans. > 100 µM

Qu. Please do the same for "c1ccc(N=C(N2CCCCC2)N(CCN2CCCCC2)c2ccccc2)cc1" as well.
Ans. 5.16 µM

Qu. Please do the same for "O=C1/C(=C/c2ccc(Cl)cc2)N=C(c2ccccc2)N1c1nc2ccc(Sc3ccccc3)cc2[nH]1" as well.
Ans. 31.4 µM

Qu. Please do the same for "CN1CCN(Cc2nc3cccc4c3c([n+]2[O-])-c2ccccc2-4)CC1" as well.
Ans. > 100 µM

Qu. Please do the same for "Cc1c(C)n(COCCO)c2ncnc(N)c12" as well.
Ans. > 100 µM

Qu. Please do the same for CC1(c2ccc(Cl)cc2)NC(=NCCO)c2ccccc21 (centres undefined) as well.
Ans. 24.8 µM

Qu. Please do the same for O=C(O)CCC1(C(=O)O)CCC(=O)c2ccccc21 (centres undefined) as well.
Ans. > 100 µM

Qu. Please do the same for "CN(C)N=Nc1cn[nH]c1C(N)=O" as well.
Ans. > 100 µM

Qu. Please do the same for CCC(C)CN=C(N)c1ccc(N2CCN(c3ccc(C(N)=NCC(C)CC)cc3)CC2)cc1 (centres undefined) as well.
Ans. > 100 µM

Qu. Please do the same for "COc1ccc(-c2csc(=[N+]3CCCCC3)s2)cc1" as well.
Ans. > 100 µM

Qu. Please do the same for CN1C(=O)N(C)C2(O)c3ccccc3C(=O)C12O (centres undefined) as well.
Ans. > 100 µM

These data points were gathered from PubChem BioAssay (NCI).
